Where these numbers come from: PubChem BioAssay (EPA / NIEHS)

# Read-out: Interleukin-8 (IL8), CXCL8 (gene 3576)
# methodDescription: BSK_MyoF_IL8: BioMAP Diversity Plus: MyoF Assay for Interleukin-8 (IL8) Biomarker Activity (AID 2284261)
# conditionLabel: primary human lung fibroblasts
Active and inactive are the calls of the source. Rule for the calls: active = hit-call score of the fitted dose curve at least 0.9, where 1 is the maximum; inactive = score below 0.9.
Classes used: 1 (active), -1 (inactive)

>  <compound>
Cc1ccc2n[nH]nc2c1

>  <className>
-1

$$$$
>  <compound>
CCCCC(CC)COCCC#N (configuration not stated)

>  <className>
-1

$$$$
>  <compound>
O=C(O)c1cn(-c2ccc(F)cc2)c2cc(N3CCNCC3)c(F)cc2c1=O

>  <className>
-1

$$$$
>  <compound>
CC(=O)/C=C/C1=C(C)CCCC1(C)C

>  <className>
-1

$$$$
>  <compound>
Nc1cc([N+](=O)[O-])ccc1Cl

>  <className>
-1

$$$$
>  <compound>
c1ccc2sc(SN(C3CCCCC3)C3CCCCC3)nc2c1

>  <className>
-1

$$$$
>  <compound>
CC1COc2ccccc2N1C(=O)C(Cl)Cl (configuration not stated)

>  <className>
1

$$$$
>  <compound>
C=C[Si](OCC)(OCC)OCC

>  <className>
-1

$$$$
>  <compound>
O=C(O)C[C@H](O)C[C@H](O)/C=C/c1c(C2CC2)nc2ccccc2c1-c1ccc(F)cc1

>  <className>
1

$$$$
>  <compound>
CC(=O)O[C@]1(C(C)=O)CC[C@H]2[C@@H]3C[C@H](C)C4=CC(=O)CC[C@]4(C)[C@H]3CC[C@@]21C

>  <className>
-1

$$$$
>  <compound>
C=C(C)C(=O)O[C@H]1C[C@@H]2CC[C@@]1(C)C2(C)C

>  <className>
-1

$$$$
>  <compound>
O=C1CCCCCCCCCCCCCCO1

>  <className>
-1

$$$$
